assay: Cytotoxicity against Ph-positive human SUP-B15 cells after 72 hrs by vital dye exclusion/flow cytometric analysis; assay type: functional, cell-based; settings: SUP-B15, 72 h
pIC50: −log10 of the molar value.
Label TRUE when pIC50 is at or above 5; anything below gets FALSE.

{"Chemical smiles": "CCCCCCCCc1ccc(CO[C@@H]2CN[C@H](CO)C2)cc1", "Class assignment": "FALSE"}
{"Chemical smiles": "CCCCCCCCc1ccc(CO[C@@H]2CN[C@@H](CO)C2)cc1", "Class assignment": "TRUE"}
{"Chemical smiles": "CCCCCCCCc1ccc(CCC(N)(CO)CO)cc1", "Class assignment": "TRUE"}

----------
In this section we review reported IC50 values for a set of compounds.
system: PC-3; assay: Cytotoxicity against human PC3 cells after 72 hrs by vital dye exclusion/flow cytometric analysis; type: functional, cell-based; settings: PC-3, 72 h

{"Compound": "CCCCCCCCc1ccc(CO[C@H]2CN[C@H](CO)C2)cc1", "Unit symbol": "µM", "IC50": 14.3}
{"Compound": "CCCCCCCCc1ccc(CCC(N)(CO)CO)cc1 [FINGOLIMOD]", "Unit symbol": "µM", "IC50": 9.8}
{"Compound": "CCCCCCCCc1ccc(CO[C@@H]2CN[C@@H](CO)C2)cc1", "Unit symbol": "µM", "IC50": 13.5}

----------
test system: BV-173; assay: Cytotoxicity against Ph-positive human BV173 cells after 72 hrs by vital dye exclusion/flow cytometric analysis; type: functional, cell-based; details: BV-173, 72 h
pIC50: −log10 of the molar value.
In this section we review reported pIC50 values for a set of compounds.
Experimental readout: pIC50

{"Chemical smiles": "CCCCCCCCc1ccc(CO[C@@H]2CN[C@@H](CO)C2)cc1", "System name": "BV-173", "Experimental readout": "pIC50", "Value reported": 5.42}
{"Chemical smiles": "CCCCCCCCc1ccc(CO[C@H]2CN[C@H](CO)C2)cc1", "System name": "BV-173", "Experimental readout": "pIC50", "Value reported": 4.98}
{"Chemical smiles": "CCCCCCCCc1ccc(CO[C@H]2CN[C@@H](CO)C2)cc1", "System name": "BV-173", "Experimental readout": "pIC50", "Value reported": 5.01}
{"Chemical smiles": "CCCCCCCCc1ccc(CO[C@@H]2CN[C@H](CO)C2)cc1", "System name": "BV-173", "Experimental readout": "pIC50", "Value reported": 4.86}
{"Chemical smiles": "CCCCCCCCc1ccc(CCC(N)(CO)CO)cc1", "System name": "BV-173", "Experimental readout": "pIC50", "Value reported": 5.20}
